experiment: chemical genetic growth profiling, strain panel (AID 1159580);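 also: tested at 20 µM; growth read once vehicle control cultures reached saturation at 30 °C; 1 = growth at the plate median or of vehicle wells; lower values mean less growth of the strain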; conditions: S. cerevisiae deletion strains, growth OD, locus YNL183C, strain NPR1, hits give low values
The campaign covered roughly 5,500 compounds. About 2,000 (36%) were called active. Roughly 18% stayed inconclusive and do not appear here. The list shows a part of the results.
REPORTED METRIC: normalized growth
The response must contain the number and no unit.

# example entries with known answers
Which normalized growth reading was recorded for the compound N#CC(C#N)=NNc1ccc(-n2ccc(C(F)(F)F)n2)cc1 ? 0.292

Proceed to Cc1oc(-c2ccc(Cl)cc2)cc1C(=O)N1CCN(c2ccc(C(F)(F)F)cn2)CC1 0.95

Another compound: O=C(N/N=C\c1ccc([N+](=O)[O-])o1)c1ccc(O)cc1 0.869

Next compound up: CC(=O)Oc1ccc2c(c1)CCC1C2CC[C@@]2(C)C1CC[C@@H]2OC(C)=O (some centres not stated) 0.894

What would you report for N#C/C(=N/Nc1ccc(Cl)cc1)C(N)=S ? 0.185

Now the same for O=S(=O)(Nc1cc(-c2cccs2)nn1-c1ccc(I)cc1)c1cccc(F)c1 0.986

Proceed to COc1c(O)cc(O)cc1O 0.988

Now try CC1=C2CCC3C(CC[C@]4(C)C(=O)CCC34)[C@@]2(C)CCC1=O (some centres not stated) . 0.839

Another compound to check: COC(=O)C[C@H]1C(C)(C)[C@@H](OC(C)=O)[C@@H]2CC3C4CC(=O)O[C@@H](c5ccoc5)[C@]4(C)CCC3[C@@]1(C)C2=O (some centres not stated) 0.981

Now consider CC(C)=CCOc1cc2oc(=O)ccc2cc1O . 0.923

Others:
Quick one: normalized growth for O=C1OC(=O)C2C3CCC(O3)C12 (configuration not stated) ? 0.887

Next compound up: CC(C)(C)c1cc(C(=O)/C(C#N)=N\Nc2ccc(Cl)cc2)no1 0.294

Param item: Fc1ccc(Nc2nc(-c3ccc(F)c(F)c3)cs2)c(F)c1 0.155

Next up: N#CC(C#N)=NNc1ccc(C(F)(F)F)cc1 0.141

Next entry: COc1ccc2c(c1)[nH]c1c(C)nccc12 0.982

Input Cc1c(C(=O)NCCNc2ccc(C(F)(F)F)cc2[N+](=O)[O-])cnn1-c1ccc(F)cc1 0.986

Param item: O=C(O)CCCN1C(=O)c2cccc3cccc(c23)C1=O 0.931

###

// reported normalized growth per item
assay: chemical genetic growth profiling, strain panel (AID 1159580); details: S. cerevisiae deletion strains, growth OD, locus YLR058C, strain SHM2 (second series), hits give low values
Screen size: about 5,500 compounds; about 2,000 (36%) were called active. Inconclusive results (about 18%) are left out. The list shows a part of the results.

Examples with answers:
Can you share its normalized growth? I mean this molecule: NC(=S)c1ccc2nonc2c1 1 (inactive)

// next record COc1ccc(-c2c(C(=O)O)sc(SC)c2C#N)cc1 0.994 (inactive)

// next record CC(O)CNc1ccc(C(F)(F)F)cc1[N+](=O)[O-] (stereo not given) 0.998 (inactive)

Now consider CCCc1cc(C(=O)Nc2ccc(N(CC)CC)cc2)nn1-c1ccccc1 . 0.982 (inactive)

Turning to the following molecule.
# input molecule: CCOC(=O)c1csc(N/N=C2/CCCc3ccccc32)n1 ; wanted: its normalized growth 0.976 (inactive)

###

test: chemical genetic growth profiling, strain panel (AID 1159580); conditions: S. cerevisiae deletion strains, growth OD, locus YJL166W, strain qcr8, hits give low values
Out of some 5,500 compounds screened, about 2,000 (36%) were called active. Inconclusive results (about 18%) are left out. This is one part of the list.
REPORTED METRIC: normalized growth
Give your answer as a number; write no unit.

Illustrative cases are given below, each with its answer.
Quick one: normalized growth of CC(=O)O[C@@H]1CC2C(C)(C)[C@H](O)C[C@H](O)[C@]2(C)C2CC[C@@]3(C)C(=CC(=O)O[C@H]3c3ccoc3)[C@@]21C (some centres not stated) ? 1.02

// repeat for CC(=O)OC1CCC23C(=O)OC45CCC(C6=CC(=O)OC6)C4(C)CCC2C5CCC3(O)C1 (configuration not stated) and report 0.977

Can you handle OC[C@@H](O)C(O[C@@H]1O[C@H](CO)[C@H](O)[C@H](O)[C@H]1O)[C@H](O)[C@@H](O)CO (some centres not stated) next? 0.987

New cases:
Look up normalized growth for this molecule: Cc1c(N(C)CS(=O)(=O)O)c(=O)n(-c2ccccc2)n1C 1.02

What about this molecule? CNC(=O)CSP(=S)(OC)OC 1

Also need O=c1cc(-c2ccc(O)cc2)oc2cc(O[C@@H]3O[C@H](CO)[C@@H](O)[C@H](O)[C@H]3O[C@@H]3OC[C@](O)(CO)[C@H]3O)cc(O)c12 , thanks. 1.01

Another molecule to check: COP(=S)(OC)SCn1nnc2ccccc2c1=O 1.01

###

experiment: chemical genetic growth profiling, strain panel (AID 1159580); details: S. cerevisiae deletion strains, growth OD, locus YKL048C, strain ELM1, hits give low values
The campaign covered roughly 5,500 compounds. About 2,000 (36%) were called active. Another 18% or so got no clear call; they are omitted. The list shows a part of the results.
# normalized growth values compiled below

Study these solved cases before continuing.
Record request: normalized growth value, item N#C/C(=N/Nc1ccc(Cl)cc1)C(N)=S 0.327 (active)

Next: COC(=O)c1ccc(Oc2c(C(F)(F)F)oc3cc(O)ccc3c2=O)cc1 0.968 (inactive)

Continuing:
// lookup normalized growth for CC(Oc1ccc(Cl)cc1Cl)C(=O)NNC(=S)Nc1ccccc1 (centres undefined) 0.974 (inactive)

What do you get for N#C/C(=N/Nc1ccc(Cl)cc1)C(=O)C1CC1 ? 0.793 (active)

###

test: chemical genetic growth profiling, strain panel (AID 1159580);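 also: tested at 20 µM; growth read once vehicle control cultures reached saturation at 30 °C; 1 = growth at the plate median or of vehicle wells; lower values mean less growth of the strain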; settings: S. cerevisiae deletion strains, growth OD, locus YER002W, strain NOP16, hits give low values
The campaign covered roughly 5,500 compounds. About 2,000 (36%) were called active. Roughly 18% stayed inconclusive and do not appear here. The list shows a part of the results.
Catalogue of compounds with associated normalized growth
I only need the number, thanks.

# lookup: normalized growth of N[C@@]1(C(=O)O)CC[C@@H](C(=O)O)C1 1.01

And then O=C(O)CCC/C=C\C[C@@H]1[C@@H](/C=C/[C@H](O)C2Cc3ccccc3C2)[C@@H](F)C[C@@H]1O , what is it? 0.988

Param item: CCCN(CCC)[C@H]1CCc2c(F)ccc(O)c2C1 0.998

Next entry: C/C=C(/C)C(=O)O[C@H]1C(C)=C2[C@H]([C@@H]1OC(=O)CCCCCCC)[C@@](C)(OC(C)=O)C[C@H](OC(=O)CCC)[C@@]1(O)[C@H]2OC(=O)[C@@]1(C)O 1.01

Continuing:
Name the recorded normalized growth for O=c1ccc2ccc(O)c(O)c2o1 . 0.996

CN(C)c1nc(N(C)C)nc(N(C)C)n1 , same question. 0.995

###

test: chemical genetic growth profiling, strain panel (AID 1159580);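 also: tested at 20 µM; growth read once vehicle control cultures reached saturation at 30 °C; 1 = growth at the plate median or of vehicle wells; lower values mean less growth of the strain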; conditions: S. cerevisiae deletion strains, growth OD, locus YKL067W, strain YNK1, hits give low values
Among all 5,500 compounds or so, about 2,000 (36%) were called active. Not shown: some 18% with an inconclusive outcome. This is one part of the list.
# normalized growth per entry

I'd like to know its normalized growth. The compound in question is O=C(c1ccc(Cl)cc1)N1CCN(c2ccc(C(F)(F)F)cn2)CC1 0.925 (inactive)

Further cases:
// lookup normalized growth for O=C(Nc1ccc(Cl)cc1)c1csc([N+](=O)[O-])c1 0.894 (inactive)

Also check Nc1ccc(N2CCN(c3ccc(C(F)(F)F)cn3)CC2)nc1 0.91 (inactive)

Here is the next compound: Cc1oc(-c2ccc(Cl)cc2)cc1C(=O)N1CCN(c2ccc(C(F)(F)F)cn2)CC1 0.907 (inactive)

Same read-out for Cc1nc(C(F)(F)F)ccc1C(=O)Sc1nnc(-c2ccc(C(F)(F)F)nc2C)o1 ? 0.893 (inactive)

And what about the compound O=S(=O)(Nc1cc(-c2cccs2)nn1-c1ccc(I)cc1)c1cccc(F)c1 ? 0.912 (inactive)

Can you check COc1ccc(-c2cc(NS(=O)(=O)c3cccc(F)c3)n(-c3ccc(Cl)c(Cl)c3)n2)cc1 next? 0.91 (inactive)

###

Readings of normalized growth for the listed compounds
assay: chemical genetic growth profiling, strain panel (AID 1159580);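 also: tested at 20 µM; growth read once vehicle control cultures reached saturation at 30 °C; 1 = growth at the plate median or of vehicle wells; lower values mean less growth of the strain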; details: S. cerevisiae deletion strains, growth OD, locus YDR101C, strain arx1, hits give low values
In all, about 5,500 compounds went through this assay and about 2,000 (36%) were called active. Inconclusive results (about 18%) are left out. This is one part of the list.
Form: value (number only, do not type unit).

Use these answered entries as a reference point.
Item O=c1[nH]cnc2nc[nH]c12 has what recorded normalized growth? 0.973

Then this compound: CC(C(=O)O)c1ccc(N2Cc3ccccc3C2=O)cc1 (centres undefined) 1

---
State the recorded normalized growth for this entry: CC1=C2CCC3C(CC[C@]4(C)C(=O)CCC34)[C@@]2(C)CCC1=O (some centres undefined) 0.982

Can you check CCC(=O)O[C@H]1CCC2C3CCc4cc(O)ccc4C3CC[C@@]21C (some centres undefined) next? 0.986
